- assay-protocol: Acute toxicity in ICR mouse assessed as survival rate at 500 mg/kg, iv monitered twice daily
- Assay type: organism-based
- condition-set: in vivo, read-out: Activity
metric-name: survival (%)
State the answer as a number, implicitly in %.

Report survival for "O=P(O)(O)CCN1CCC(Nc2cc(N3CCOCC3)nc(NCc3cn(CCCO)nn3)n2)CC1" please.
100

###

- assay-protocol: Acute toxicity in ICR mouse assessed as survival rate at 300 mg/kg, iv monitered twice daily
- Assay type: organism-based
- condition-set: in vivo, read-out: Activity
metric-name: survival (%)
State the answer as a number, implicitly in %.

Report survival for "O=P(O)(O)CCN1CCC(Nc2cc(N3CCOCC3)nc(NCc3cn(CCCO)nn3)n2)CC1" please.
100
